# tested_system: UGT1A9 (Homo sapiens)
# setup_conditions: human, recombinant enzyme, pH 7.4
Could you label it YES if measured Log (CLint) (Actual) is 2 or higher, and NO otherwise?

INSERT INTO assay_data (compound, label) VALUES
  ('CCOC(=O)c1ccc(O)cc1 [compound 130, Ethyl-4-hydroxybenzoate]', 'NO'),
  ('COC(=O)c1ccc(O)cc1 [compound 132, Methyl-4-hydroxybenzoate]', 'NO'),
  ('Cc1ccc(O)cc1 [compound 119, 4-Methylphenol]', 'NO'),
  ('O=c1cc(-c2ccccc2)oc2cccc(O)c12 [compound 34, 5-Hydroxyflavone]', 'YES'),
  ('O=c1cc(-c2ccccc2)oc2cc(O)cc(O)c12 [compound 52, Chrysin]', 'YES'),
  ('C=CCc1ccc(O)c(OC)c1 [compound 131, Eugenol]', 'NO'),
  ('CCCOC(=O)c1ccc(O)cc1 [compound 134, Propyl-4-hydroxybenzoate]', 'NO'),
  ('CC(C)(c1ccc(O)cc1)c1ccc(O)cc1 [compound 135, Bisphenol A]', 'NO'),
  ('Cc1cc(O)c2c(c1)C(=O)c1cc(O)cc(O)c1C2=O [compound 18, Emodin]', 'YES'),
  ('O=c1cc(-c2ccc(O)cc2)oc2cc(O)cc(O)c12 [compound 50, Apigenin]', 'YES'),
  ('O=c1cc(-c2ccccc2)oc2cc(O)c(O)c(O)c12 [compound 51, Baicalein]', 'YES'),
  ('O=C(/C=C/c1ccccc1)c1ccccc1O [compound 5, 2′-Hydroxychalcone]', 'YES'),
  ('COc1c(O)cc2oc(-c3ccccc3)cc(=O)c2c1O [compound 57, OroxylinA]', 'YES'),
  ('CCCCc1ccc(O)cc1 [compound 110, 4-n-Butylphenol]', 'NO'),
  ('O=c1c(-c2ccc(O)cc2)coc2cc(O)ccc12 [compound 101, Daidzein]', 'NO'),
  ('Oc1cccc2ccccc12 [compound 21, Naphthol]', 'YES'),
  ('CN(C)CCc1c[nH]c2cccc(O)c12 [compound 143, Psilocin]', 'NO'),
  ('COc1cc(-c2oc3cc(O)cc(O)c3c(=O)c2O)ccc1O [compound 87, Isorhamnetin]', 'YES');

###

# tested_system: UniProt:O60656
# Sequence (O60656 26-530): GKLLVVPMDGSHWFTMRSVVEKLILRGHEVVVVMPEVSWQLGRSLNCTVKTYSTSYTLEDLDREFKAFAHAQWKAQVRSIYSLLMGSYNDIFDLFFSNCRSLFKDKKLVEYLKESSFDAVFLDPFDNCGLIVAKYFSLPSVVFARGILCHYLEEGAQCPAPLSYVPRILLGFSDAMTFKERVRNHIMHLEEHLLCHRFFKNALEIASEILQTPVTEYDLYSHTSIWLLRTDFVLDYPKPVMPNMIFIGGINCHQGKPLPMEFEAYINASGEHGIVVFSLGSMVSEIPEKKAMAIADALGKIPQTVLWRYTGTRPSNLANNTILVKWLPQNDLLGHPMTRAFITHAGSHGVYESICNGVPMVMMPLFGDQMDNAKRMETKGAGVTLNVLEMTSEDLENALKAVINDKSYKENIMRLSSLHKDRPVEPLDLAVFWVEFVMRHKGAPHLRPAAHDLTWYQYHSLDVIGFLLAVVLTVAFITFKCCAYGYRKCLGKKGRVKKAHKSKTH
# experiment_description: Kinetic profiling of glucuronidation by expressed human UGT1A9
# setup_conditions: human, expressed human UGT1A9 (Supersomes), pH 7.4
measured_quantity: Km

INSERT INTO measurements (smiles_code, tested_system, measured_quantity, result) VALUES
  ('O=C1C[C@@H](c2ccc(O)cc2)Oc2cc(O)cc(O)c21', 'UniProt:O60656', 'Km', '3.34 µM');
